The following compounds are listed with their measured CC50 values.
Assay: NOVARTIS: Cytotoxicity against human hepatocellular carcinoma cell line (Huh7)
Assay type: toxicity, cell-based, Huh-7
Settings: Huh7 cells (hepatocellular carcinoma cell line)

Below, each entry is followed by its recorded CC50 result.
In [3]: df
Out[3]:
                                   compound  assay_value
0  S=P(OCC1C(COP(=S)(c2ccccc2)c2ccccc2)C1(Cl)Cl)(c1ccccc1)c1ccccc1 (stereo unspecified)     > 100 µM
1  COC(=O)COc1ccc(/C=C2/SC(=Nc3ccc(F)cc3)NC2=O)cc1     > 100 µM
2  CCc1cccc(NC(=O)N2CCN(C(=O)c3nc(-c4ccccc4)nc(C)c3C(=O)OC(C)C)CC2C)c1 (stereo unspecified)      > 10 µM
3    O=C1c2ccccc2-c2nc3ccc(C(F)(F)F)cc3nc21      > 10 µM
4        CN(C)c1ccc(N/C=C/C(=O)C(C)(C)C)cc1      > 10 µM

Notebook: `COc1ccccc1C(c1c(C)n[nH]c1O)c1c(C)n[nH]c1O` , CC50 read as > 10 µM

Notebook: `CCOC(=O)c1cnc2c(C)cc(C)cc2c1Nc1ccc(C(C)=O)cc1` , CC50 read as > 100 µM

Notebook: `O=C(NN=CC(Br)=Cc1ccccc1)c1ccc(F)cc1` , CC50 read as > 10 µM

Notebook: `Cc1ccc(CSCc2ccc(C(=O)NC3CC3)o2)cc1` , CC50 read as > 100 µM

Notebook: `COc1ccc2sc(Nc3nc(-c4ccccn4)cs3)nc2c1` , CC50 read as 4.4 µM

====

The following molecules are listed with their measured CC50 values.
Assay: NOVARTIS: Cytotoxicity against human hepatocellular carcinoma cell line (Huh7)
Type: toxicity, cell-based, Huh-7
Conditions: Huh7 cells (hepatocellular carcinoma cell line)

                                   molecule  assay_value
0  COc1ccccc1N1CCN(c2ccc(NC(=O)c3cccc(F)c3)cc2C(=O)N2CCCC2)CC1     > 100 µM

Notebook: Cc1cccc(C)c1NC(=O)N1CCN(C(=O)c2nc(-c3ccccc3)nc(C)c2C(=O)OC(C)C)CC1C (centres undefined) , CC50 read as > 10 µM

Notebook: COc1ccc(C(=O)NC(c2ccccc2Cl)c2cc(Cl)c3cccnc3c2O)cc1 (centres undefined) , CC50 read as > 87 µM

Notebook: CC1=C(C(=O)OC(C)C)C(c2ccccc2F)C2=C(CC(C)(C)CC2=O)N1 (centres undefined) , CC50 read as > 10 µM

Notebook: OC1(c2ccc3ccccc3c2)c2c(c3ccccc3c3ccccc23)C2=NCCN21 (centres undefined) , CC50 read as > 10 µM

Notebook: `Fc1ccc2nc(Nc3nc(-c4ccccn4)cs3)sc2c1` , CC50 read as 3.04 µM

Notebook: `CCCCCCCC(=O)N1CCN(CCN(Cc2ccc(F)cc2)C(=O)c2c(-c3c(F)cccc3Cl)noc2C)CC1` , CC50 read as > 100 µM

Notebook: `CN1CCN=C1c1ccc(NC(=O)c2ccc(C(=O)Nc3ccc(C4=NCCN4C)cc3)c([N+](=O)[O-])c2)cc1` , CC50 read as > 10 µM

Notebook: `CCOC(=O)c1c(NC(=O)CSc2nnc(CNC(=O)c3cccc(C)c3)n2-c2cccc(C)c2)sc2c1CCC2` , CC50 read as > 10 µM

====

Tested on: Plasmodium falciparum
Assay: NOVARTIS: Inhibition of Plasmodium falciparum 3D7 (drug-susceptible) proliferation in erythrocyte-based infection assay
Type: functional, organism-based
Conditions: Plasmodium falciparum, 3D7
The following compounds are listed with their measured log10(EC50) values.
Hi team, quick reminder: these entries are log10 of EC50 (µM).

Below, each entry is followed by its recorded log10(EC50) result.
>>> df
                                   compound           study_system  assay_value
0  OC(CNC1CCCCC1)Cn1c2ccc(Br)cc2c2cc(Br)ccc21 (configuration not stated)  Plasmodium falciparum        -0.35
1  Cc1ccc2[nH]c3c(NCCN(C(C)C)C(C)C)ncnc3c2c1  Plasmodium falciparum        -0.51
2  COc1ccc(C2CC(=O)C3=C(C2)NC(=O)CC3c2ccc(C(F)(F)F)cc2)cc1OC (configuration not stated)  Plasmodium falciparum        -0.74
3       C=CC[N+]1(CC#Cc2cccc3ccccc23)CCCCC1  Plasmodium falciparum        -0.17
4         CCC[n+]1ccc(/C=C/c2ccc(Br)cc2)cc1  Plasmodium falciparum        -0.19

GET /values?item= `Fc1ccc(CN2CCc3nc(N4CCCCC4)sc3C2)cc1F` &system= Plasmodium falciparum returns log10(EC50): 0.04

GET /values?item= O=C(C(Cc1c[nH]c2ccccc12)NS(=O)(=O)c1ccc(Cl)cc1)N1CCCCC1 (configuration not stated) &system= Plasmodium falciparum returns log10(EC50): -0.14

GET /values?item= `Cc1oc(C)c2c(=O)cc(-c3cccs3)cc(O)c12` &system= Plasmodium falciparum returns log10(EC50): 0.09

====

Experiment: NOVARTIS: Cytotoxicity against human hepatocellular carcinoma cell line (Huh7)
Format: toxicity, cell-based, Huh-7
Conditions: Huh7 cells (hepatocellular carcinoma cell line)
readout_label: CC50

Notebook: `N#Cc1c2c(c(N3CCN(C4CCCCC4)CC3)n3c1nc1ccccc13)CCC2` , CC50 read as > 100 µM

Notebook: `COc1cc(C=NNC(=O)c2ccco2)ccc1OCc1ccc([N+](=O)[O-])cc1` , CC50 read as > 10 µM

Notebook: CCCCCCN(C(=O)c1ccc(CC)cc1)C(CC)c1nc2ccccc2c(=O)n1-c1cccc(Cl)c1 (stereo unspecified) , CC50 read as > 10 µM

Notebook: `CCN(CC)c1nc(Nc2cc(C)ccc2C)nc(Nc2ccccc2O)n1` , CC50 read as > 10 µM

Notebook: `C=CCNC(=O)c1ccc2c(c1)N=C(c1ccc(F)cc1)N(CCCC)C2` , CC50 read as 16.9 µM

Notebook: `COc1ccc(CN2CC(=O)N(c3ccc(Cl)cc3)C2=S)cc1OC` , CC50 read as > 10 µM

Notebook: `Nc1c(C(=O)c2ccc(Br)cc2)sc2nc(-c3cccnc3)ccc12` , CC50 read as > 13 µM

Notebook: COc1ccc(C(OCC(=O)N2CCSCC2)c2ccncc2Cl)cc1 (stereo unspecified) , CC50 read as > 100 µM

====

The following molecules are listed with their measured EC50 values.
Test system: Plasmodium falciparum
Assay: NOVARTIS: Inhibition of Plasmodium falciparum W2 (drug-resistant) proliferation in erythrocyte-based infection assay
Assay type: functional, organism-based
Details: Plasmodium falciparum, W2; read-out: EC50
Just the number in nM, nothing appended.

Below, each entry is followed by its recorded EC50 result.
>>> df
                                   molecule           study_system  result_units  assay_value
0               O=C1c2ccccc2-c2nc3nnnn3nc21  Plasmodium falciparum            nM         98.7
1           CCOc1ccc(CCNC(=O)c2cccs2)cc1OCC  Plasmodium falciparum            nM          560
2  COc1ccc(Nc2nc(NN=Cc3cccc(Cl)c3)nc(Nc3ccc([N+](=O)[O-])cc3)n2)cc1  Plasmodium falciparum            nM          717
3  Nc1nonc1-n1nnc(C(=O)NN=Cc2ccc(F)c(Br)c2)c1-c1ccc([N+](=O)[O-])cc1  Plasmodium falciparum            nM          128
4  COc1cccc(-c2ccc(O)c(CNC(C)c3cccc4ccccc34)c2)n1 (stereo not given)  Plasmodium falciparum            nM         48.4

Notebook: `c1ccc(-c2cc(N3CCOCC3)nc(-c3ccccn3)n2)nc1` , EC50 read as 372

Notebook: COc1cccc(NC(=O)N(Cc2ccccc2)C(C)c2nc3ccccc3c(=O)n2-c2cc(C)ccc2OC)c1 (stereo not given) , EC50 read as 1220

====

Assay: NOVARTIS: Cytotoxicity against human hepatocellular carcinoma cell line (Huh7)
Assay type: toxicity, cell-based, Huh-7
Settings: Huh7 cells (hepatocellular carcinoma cell line)
The following compounds are listed with their measured CC50 values.

Below, each entry is followed by its recorded CC50 result.
In [3]: df
Out[3]:
                                   compound  readout_label  assay_value
0  COc1ccc(/C=C2\N=C(c3ccc(Cl)cc3)N(c3ccccc3)C2=O)cc1OC           CC50      > 10 µM
1  Cc1ccccc1N1C(=O)C2C3c4ccccc4C(C(=O)O)(c4ccccc43)C2C1=O (stereo unspecified)           CC50     > 100 µM
2  O=C(Nc1nc(-c2ccccn2)cs1)c1ccc(Oc2ccc(C(=O)Nc3nc(-c4ccccn4)cs3)cc2)cc1           CC50     > 100 µM
3  COc1ccc2nc3cc(Cl)ccc3c(NCCCN(CCCN)CCCCN)c2c1           CC50      > 10 µM
4  C=CCNC(=O)c1ccc2c(c1)N=C(CC(C)c1ccccc1)N(CC1CCCCC1)C2 (stereo unspecified)           CC50      > 10 µM
5              O=C(CCl)Nc1ccc(N2CCCCCC2)cc1           CC50      19.7 µM
6  O=C(O[Si](c1ccccc1)(c1ccccc1)c1ccccc1)c1ccccc1           CC50      > 10 µM
7  Cc1ccccc1N(CC(=O)NCC1CCCO1)C(=O)c1snc(C(N)=O)c1N (stereo unspecified)           CC50     > 2.4 µM

Notebook: `Oc1ccc(CN2CCCCC2)nc1-c1ccccc1` , CC50 read as > 100 µM

Notebook: CCN1CCCC1CNC(=O)CN1N=C(c2ccccc2)Cn2c(cc3ccccc32)C1=O (stereo unspecified) , CC50 read as > 10 µM

Notebook: `Cc1nc(NC(=N)N)nc2ccccc12` , CC50 read as 66.4 µM
